Listed next: entries and their corresponding pIC50.
# Tested on: HCT116 cells
# measurement-notes: Inhibition of proliferation of the human colon tumor line HCT116 ([14C]-thymidine incorporation)
# Assay type: cell-based
# experimental-parameters: Homo sapiens, HCT-116, 48 h, 48 hours at 37° C., read-out: Inhibition of HCT116 proliferation IC 50 (μm)
pIC50: −log10 of the molar value.

# compound, pIC50
records = [
    ("CSc1ccccc1N1CCN(C(=O)c2cc(C)nn2-c2ccc(F)cc2)CC1 [3/58]", 5.40),
    ("CC(=O)c1cccc(N2CCN(C(=O)c3cc(C)nn3-c3ccccc3)CC2)c1 [Example E107]", 7.98),
    ("COc1cc(OC)cc(N2CCN(C(=O)c3cc(/C=C/c4ccc(F)cc4)nn3-c3ccccc3)CC2)c1 [Example E87]", 5.89),
    ("Cc1cc(C(=O)N2CCN(c3cccc(Cl)c3)CC2)n(C2CCCCC2)n1 [Example E48]", 6.31),
    ("COc1cccc(-n2nc(C)cc2C(=O)N2CCN(c3cccc(C(F)(F)F)c3)CC2)c1 [3/133]", 6.67),
    ("Cc1cc(C(=O)N2CCN(c3cccc(N)c3)CC2)n(-c2ccccc2)n1 [Example E9]", 7.27),
    ("Cc1cc(C(=O)N2CCN(c3cccc(Cl)c3)CC2)n(-c2cc(Cl)ccc2Cl)n1 [Example E44]", 6.63),
    ("C/C=C/c1cc(C(=O)N2CCN(c3cc(OC)cc(OC)c3)CC2)n(-c2ccccc2)n1 [Example E86]", 8.17),
    ("COc1ccc(-n2nc(C)cc2C(=O)N2CCN(c3cccc(Cl)c3Cl)CC2)cc1 [3/106]", 6.01),
    ("COc1cccc(N2CCN(C(=O)c3cc(C)nn3-c3ccc(Cl)cc3)CC2)c1 [3/73]", 6.95),
    ("COc1cccc(-n2nc(C)cc2C(=O)N2CCN(c3cccc(Cl)c3Cl)CC2)c1 [3/139]", 5.87),
    ("Cc1cccc(N2CCN(C(=O)c3cc(C)nn3-c3ccccc3F)CC2)c1 [3/16]", 6.65),
    ("Cc1ccnc(N2CCN(C(=O)c3cc(C)nn3-c3ccccc3)CC2)c1 [Example E31]", 7.68),
    ("O=C(c1cc(CNc2ccccc2)nn1-c1ccccc1)N1CCN(c2cccc(Cl)c2)CC1 [Example E76]", 6.86),
    ("COc1cccc(-n2nc(C)cc2C(=O)N2CCN(c3cccc(C)c3)CC2)c1 [3/3]", 7.06),
    ("Cc1cc(C(=O)N2CCN(c3ccccc3Cl)CC2)n(-c2ccccc2)n1 [3/112]", 5.82),
    ("Cc1cc(C(=O)N2CCN(c3cccc(O)c3)CC2)n(-c2ccccc2)n1 [Example E13]", 7.85),
    ("O=C(c1ccnn1-c1ccccc1)N1CCN(c2cccc(Cl)c2)CC1 [Example 5]", 8.39),
    ("Cc1cc(C(=O)N2CCN(c3cccc(Cl)c3)CC2)n(-c2ccccn2)n1 [Example E22]", 8.19),
    ("Cc1cc(C(=O)N2CCN(c3cccc(Cl)c3Cl)CC2)n(-c2ccc(Cl)cc2)n1 [3/129]", 5.59),
    ("CCc1ccccc1N1CCN(C(=O)c2cc(C)nn2-c2cccc(OC)c2)CC1 [3/136]", 6.03),
    ("CCOc1ccccc1N1CCN(C(=O)c2cc(C)nn2-c2ccccc2)CC1 [3/43]", 6.64),
    ("Cc1cc(C(=O)N2CCN(c3cccc(Cl)c3)CC2)n(-c2ccc(F)cc2F)n1 [Example E42]", 7.30),
    ("Cc1cc(C(=O)N2CCN(c3ccccc3C(F)(F)F)CC2)n(-c2ccccc2F)n1 [3/145]", 5.82),
    ("COc1cccc(-n2nc(C)cc2C(=O)N2CCN(c3cccc4ccccc34)CC2)c1 [3/138]", 4.70),
    ("Cc1cc(C(=O)N2CCN(c3cccc(NC(=O)CCO)c3)CC2)n(-c2ccccc2)n1 [Example E128]", 6.92),
    ("Cc1cc(C(=O)N2CCN(c3cccc(C(F)(F)F)c3)CC2)n(-c2ccc(Cl)cc2)n1 [3/72]", 6.84),
    ("Cc1cc(C(=O)N2CCN(c3cccc(C)c3C)CC2)n(-c2ccc(F)cc2)n1 [3/148]", 6.70),
    ("CNC(=O)c1cccc(N2CCN(C(=O)c3cc(C)nn3-c3ccccc3)CC2)c1 [Example E116]", 7.95),
    ("CCc1ccccc1N1CCN(C(=O)c2cc(C)nn2-c2cccc(C)c2)CC1 [3/29]", 6.34),
    ("Cc1cccc(N2CCN(C(=O)c3cc(C)nn3-c3ccc(F)cc3)CC2)c1 [3/57]", 7.82),
    ("COc1cccc(N2CCN(C(=O)c3cc(C)nn3-c3cccc(C)c3)CC2)c1 [3/49]", 8.10),
    ("Cc1cc(C(=O)N2CCN(c3ccc(C(F)(F)F)cc3)CC2)n(-c2cccc(Cl)c2)n1 [3/126]", 5.06),
    ("Cc1cccc(-n2nc(C)cc2C(=O)N2CCN(c3ccc(Cl)cc3)CC2)c1 [3/52]", 6.59),
    ("CCOc1ccccc1N1CCN(C(=O)c2cc(C)nn2-c2cccc(Cl)c2)CC1 [3/71]", 6.66),
    ("Cc1cccc(-n2nc(C)cc2C(=O)N2CCN(c3cc(Cl)ccc3C)CC2)c1 [3/53]", 7.28),
]
